Values from patent US20230416248A1

SYSTEM: BRG-1 (Homo sapiens)
Construct: made in house; host or cells: High Five insect cells
Sequence (P51532 whole entry): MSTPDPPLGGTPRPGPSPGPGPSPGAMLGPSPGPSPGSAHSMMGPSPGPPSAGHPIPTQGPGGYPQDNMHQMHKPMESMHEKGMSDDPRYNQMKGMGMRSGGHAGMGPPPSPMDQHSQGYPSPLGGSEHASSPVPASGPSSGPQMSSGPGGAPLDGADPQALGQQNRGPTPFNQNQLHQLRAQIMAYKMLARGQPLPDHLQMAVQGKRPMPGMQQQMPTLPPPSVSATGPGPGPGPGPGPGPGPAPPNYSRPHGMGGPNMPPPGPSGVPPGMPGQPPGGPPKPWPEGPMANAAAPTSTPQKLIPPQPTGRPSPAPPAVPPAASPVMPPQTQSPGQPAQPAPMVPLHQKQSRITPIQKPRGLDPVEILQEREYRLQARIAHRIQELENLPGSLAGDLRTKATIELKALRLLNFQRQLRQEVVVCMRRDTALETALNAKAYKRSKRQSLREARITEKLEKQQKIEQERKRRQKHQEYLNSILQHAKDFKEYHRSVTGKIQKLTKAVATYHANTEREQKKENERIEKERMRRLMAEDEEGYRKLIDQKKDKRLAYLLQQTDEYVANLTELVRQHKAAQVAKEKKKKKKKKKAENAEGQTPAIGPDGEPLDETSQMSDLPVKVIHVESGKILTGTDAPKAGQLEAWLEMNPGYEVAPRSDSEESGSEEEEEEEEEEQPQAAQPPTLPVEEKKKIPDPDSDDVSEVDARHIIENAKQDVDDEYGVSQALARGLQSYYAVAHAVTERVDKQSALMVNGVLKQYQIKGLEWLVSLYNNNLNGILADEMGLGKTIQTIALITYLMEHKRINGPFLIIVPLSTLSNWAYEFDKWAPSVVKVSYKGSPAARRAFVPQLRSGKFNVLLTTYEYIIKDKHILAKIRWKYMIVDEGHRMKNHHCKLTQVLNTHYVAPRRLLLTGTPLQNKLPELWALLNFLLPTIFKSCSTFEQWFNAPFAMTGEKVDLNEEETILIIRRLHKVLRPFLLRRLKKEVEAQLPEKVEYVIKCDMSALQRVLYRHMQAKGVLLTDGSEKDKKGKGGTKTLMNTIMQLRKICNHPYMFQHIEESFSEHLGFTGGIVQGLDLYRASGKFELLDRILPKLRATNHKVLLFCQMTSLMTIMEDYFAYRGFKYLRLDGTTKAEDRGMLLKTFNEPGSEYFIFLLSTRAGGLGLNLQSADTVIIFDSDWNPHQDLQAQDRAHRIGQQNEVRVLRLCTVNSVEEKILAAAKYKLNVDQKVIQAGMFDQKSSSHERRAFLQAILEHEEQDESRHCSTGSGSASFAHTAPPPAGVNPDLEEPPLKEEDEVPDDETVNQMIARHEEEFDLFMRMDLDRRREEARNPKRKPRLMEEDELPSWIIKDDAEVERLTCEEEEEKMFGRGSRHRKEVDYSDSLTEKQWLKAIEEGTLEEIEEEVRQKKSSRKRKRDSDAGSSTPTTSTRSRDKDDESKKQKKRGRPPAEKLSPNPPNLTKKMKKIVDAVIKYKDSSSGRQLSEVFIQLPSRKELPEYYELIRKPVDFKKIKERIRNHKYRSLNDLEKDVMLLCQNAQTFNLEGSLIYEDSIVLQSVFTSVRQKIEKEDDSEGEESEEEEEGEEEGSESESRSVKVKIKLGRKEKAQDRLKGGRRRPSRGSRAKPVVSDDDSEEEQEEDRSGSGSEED
PROCEDURE_TEXT: ATPase catalytic activity of BRG-1, ADP-Glo in vitro biochemical assay
APPLIED_CONDITIONS: ATPase catalytic activity, ADP-Glo; 30 nM BRG-1, 400 μM ATP; read-out: BRG1 IC50
Please respond with reported pIC50 for every item in the list.
Field pIC50 (float): negative decimal logarithm of the concentration in molar.

Reported pIC50 for "CC(F)(F)c1ccc2c(n1)N(c1ccc3cnc(CNC(=O)c4ccc5c(c4)S(=O)(=O)CCOC5)cc3n1)CCO2" : what is it?
5.59

I have this molecule here, "C[C@H]1COCc2ccc(C(=O)NCc3cc4nc(-c5ccnc([C@@H]6CC6(F)F)n5)ccc4cn3)cc2S1(=O)=O" , and I need its recorded pIC50.
5.81

Recorded pIC50 for "COCc1nc2c(cc1C)CCCN2c1ccc2cnc(CNC(=O)c3ccc4c(c3)S(=O)(=O)CCOC4)cc2n1" , please?
6.34

For the molecule "COCCN(C)c1cccc(-c2ccc3cnc(CNC(=O)c4ccc5c(c4)S(=O)(=O)CCOC5)cc3n2)c1OC" , what pIC50 is on record?
5.43
